# studyTarget: human GcgR (Homo sapiens, UniProt P47871)
# Sequence (P47871 26-477): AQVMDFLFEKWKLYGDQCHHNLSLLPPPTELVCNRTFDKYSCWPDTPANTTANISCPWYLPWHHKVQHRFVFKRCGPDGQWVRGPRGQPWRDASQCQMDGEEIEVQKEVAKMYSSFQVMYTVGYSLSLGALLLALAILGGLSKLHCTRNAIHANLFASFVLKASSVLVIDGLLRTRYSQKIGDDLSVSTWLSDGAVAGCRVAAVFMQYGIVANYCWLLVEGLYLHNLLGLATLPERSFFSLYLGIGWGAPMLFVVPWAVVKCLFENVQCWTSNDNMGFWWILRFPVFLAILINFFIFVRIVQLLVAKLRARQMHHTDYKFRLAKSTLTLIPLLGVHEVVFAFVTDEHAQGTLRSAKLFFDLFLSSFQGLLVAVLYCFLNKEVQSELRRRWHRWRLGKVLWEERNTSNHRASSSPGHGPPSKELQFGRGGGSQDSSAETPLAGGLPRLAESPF
# testProtocol: Functional cAMP activity in the presence of 1% HSA
# Format: cell-based
# conditionSet: read-out: cAMP Rel EC50, hGcgR
Starred links: 1 amine or outer side, 2 acyl side, 3 side chain; linkers in the order of their positions; H or OH if unused. Non-standard residues stand in square brackets, D forms with d. Groups on a side chain read outwards from the residue. No end group written: not given here. *: point of attachment. C20 diacid = O=C(O)CCCCCCCCCCCCCCCCCCC(=O)*; C18 diacid = O=C(O)CCCCCCCCCCCCCCCCC(=O)*; Phe(4-CN) = N#Cc1ccc(C[C@H](N)C(=O)O)cc1; αMePhe(2-F) = C[C@](N)(Cc1ccccc1F)C(=O)O; γGlu = O=C(O)[C@H](CCC(=O)[*:2])N[*:1]; αMe4Pal = C[C@](N)(Cc1ccncc1)C(=O)O; αMeY = C[C@](N)(Cc1ccc(O)cc1)C(=O)O; 4Pal = N[C@@H](Cc1ccncc1)C(=O)O; αMeL = CC(C)C[C@](C)(N)C(=O)O; Orn = NCCC[C@H](N)C(=O)O; AEEA = NCCOCCOCC(=O)O; Aib = CC(C)(N)C(=O)O
readoutKind: EC50 (nM)
Answers are plain numbers, in nM.

Some entries whose results are on file:
substance	valueUnit	EC50
H-Y[Aib]QGT[αMePhe(2-F)]TSD[4Pal]SILLDKK([AEEA-γGlu-C18 diacid])AQ[Aib]AFIE[αMeY]LEEGGPSSGAPPPSGTGE-NH2 [Example 669]	nM	173
Y[Aib]QGTFTSDFSK[αMeL]LDKK([AEEA-γGlu-C20 diacid])AQ[Aib]AFIQWLLEGGPSSGAPPPSEG-NH2 [Example 39]	nM	1090
H-Y[Aib]QGTFTSD[4Pal]S[Orn][αMeL]LD[Orn]K([γGlu-γGlu-C18 diacid])AQ[αMe4Pal]EFIE[αMeY]LLEGGPSSGAPPPSGSEE-NH2 [Example 976]	nM	848
H-Y[Aib]QGT[αMePhe(2-F)]TSDYSILLDKAAQK([AEEA-γGlu-C20 diacid])[Orn]FIEYLIEGGPSSGEPPPSEG-NH2 [Example 306]	nM	2820

Here is another substance to look at.
QUERY: Hi! What's the reported EC50 for H-Y[Aib]QGT[αMePhe(2-F)]TSD[Phe(4-CN)]SILLDKQAQK([AEEA-γGlu-γGlu-C20 diacid])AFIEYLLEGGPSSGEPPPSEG-NH2 [Example 352] on human GcgR (Homo sapiens, UniProt P47871)?
RESULT: 4020

###

Record form. Attribute: pEC50. Fill in for each entry.
# studyTarget: hGcgR (Homo sapiens, UniProt P47871)
# Sequence (P47871 26-477): as the sequence (P47871 26-477) above
# testProtocol: Functional cAMP activation in the presence of 0.1% casein (no HSA);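 further: intracellular cAMP rise after 30 min at 37 °C, read by HTRF against a cAMP standard curve, scaled from buffer only (0%) to maximal control ligand response (100%)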
# Type: cell-based
# conditionSet: read-out: Relative cAMP EC50, hGcgR
Starred links: 1 amine or outer side, 2 acyl side, 3 side chain; linkers in the order of their positions; H or OH if unused. Non-standard residues stand in square brackets, D forms with d. Groups on a side chain read outwards from the residue. No end group written: not given here. *: point of attachment. C18 diacid = O=C(O)CCCCCCCCCCCCCCCCC(=O)*; αMePhe(2-F) = C[C@](N)(Cc1ccccc1F)C(=O)O; γGlu = O=C(O)[C@H](CCC(=O)[*:2])N[*:1]; αMe4Pal = C[C@](N)(Cc1ccncc1)C(=O)O; αMeY = C[C@](N)(Cc1ccc(O)cc1)C(=O)O; 4Pal = N[C@@H](Cc1ccncc1)C(=O)O; αMeL = CC(C)C[C@](C)(N)C(=O)O; αMeS = C[C@](N)(CO)C(=O)O; Orn = NCCC[C@H](N)C(=O)O; AEEA = NCCOCCOCC(=O)O; Aib = CC(C)(N)C(=O)O
One number for each entry, as −log10 of the molar value.

Take a look at these entries with their results.
substance	readoutKind	observed
H-Y[Aib]QGT[αMePhe(2-F)]TSD[4Pal]SILLDKK([γGlu-γGlu-C18 diacid])AQ[Aib]AFIEYLEEGGPSSGAPPPSGTE-NH2 [Example 509]	pEC50	8.33
H-Y[Aib]QGT[αMePhe(2-F)]TSD[4Pal]SILLDKK([γGlu-γGlu-C18 diacid])AQ[Aib]AFIEWLQEGGPSSGEPPPSGTEE-NH2 [Example 579]	pEC50	8.63
H-Y[Aib]QGT[αMePhe(2-F)]TSD[4Pal][αMeS]I[αMeL]LD[Orn]K([γGlu-γGlu-C18 diacid])AQ[Aib][Orn]FI[dE]YLLEGGPSSGEPPPSGTE-NH2 [Example 532]	pEC50	8.86
H-Y[Aib]QGT[αMePhe(2-F)]TSD[4Pal]SI[αMeL]LD[Orn]K([AEEA-γGlu-C18 diacid])AQ[Aib][Orn]FIEYLLEGGPSSGEPPPEEG-NH2 [Example 494]	pEC50	8.90
H-Y[Aib]QGT[αMePhe(2-F)]TSD[4Pal][αMeS]ILLD[Orn]K([γGlu-γGlu-C18 diacid])AQ[Aib][Orn]FI[dE]YLIEGGPSSGEPPPSGTE-NH2 [Example 531]	pEC50	8.42

Each of the following entries comes with a recorded value; kindly state pEC50 for each.
1. H-Y[Aib]QGT[αMePhe(2-F)]TSD[4Pal]SILLDKK([γGlu-γGlu-C18 diacid])AQ[Aib]AFIE[αMeY]LEEGGPSSGAPPPSGTGE-NH2 [Example 664]
2. H-Y[Aib]QGT[αMePhe(2-F)]TSD[4Pal]SILLDKK([γGlu-γGlu-C18 diacid])AQ[Aib]AFIEYLEEGGPSSGAPPPSGGGE-NH2 [Example 619]
3. H-Y[Aib]QGT[αMePhe(2-F)]TSD[4Pal][αMeS]I[αMeL]LD[Orn]K([γGlu-γGlu-C18 diacid])AQ[αMe4Pal]EFI[dE][αMeY]LIEGGPSSGAPPPSGTGE-NH2 [Example 718]
4. H-Y[Aib]QGT[αMePhe(2-F)]TSD[4Pal]SI[αMeL]LD[Orn]K([AEEA-γGlu-C18 diacid])AQ[αMe4Pal][Orn]FI[dE][αMeY]LIEGGPSSGDPPPEGTE-NH2 [Example 731]
5. H-Y[Aib]QGT[αMePhe(2-F)]TSD[4Pal][αMeS]I[αMeL]LD[Orn]K([AEEA-γGlu-C18 diacid])AQ[Aib]NFIEYLIEGGPSSGEPPPEEG-NH2 [Example 482]
6. H-Y[Aib]QGT[αMePhe(2-F)]TSDY[αMeS]I[αMeL]LD[Orn]K([AEEA-γGlu-C18 diacid])AQ[Aib][Orn]FI[dE][αMeY]LEEGGPSSGEPPPEEG-NH2 [Example 403]
7. Y[Aib]QGT[αMePhe(2-F)]TSD[4Pal][αMeS]I[αMeL]LD[Orn]K([γGlu-γGlu-C18 diacid])AQ[αMe4Pal]EFI[dE][αMeY]LIEGGPSSGEPPPEGGGE-NH2 [Example 762]

RESULT:
[8.67, 8.20, 8.92, 8.63, 8.85, 8.80, 8.51]

// input: 2 substances below; output: pEC50 for each
1. H-Y[Aib]QGT[αMePhe(2-F)]TSDYSILLDKK([AEEA-γGlu-C18 diacid])AQ[Aib]AFIE[4Pal]LEEGGPSSGAPPPSEG-NH2 [Example 411]
2. H-Y[Aib]QGT[αMePhe(2-F)]TSD[4Pal]SI[αMeL]LD[Orn]K([AEEA-γGlu-C18 diacid])AQ[αMe4Pal]EFI[dE][αMeY]LIEGGPSSGAPPPSGS-NH2 [Example 640]

RESULT:
8.40
8.02

From: patent US20240270821A1
